# ASSAY REMARKS: blockers of CRF-binding protein–CRF-R2 complex – cell-based, uHTS hits, 384-well, dose response (AID 651639)
# Assay type: functional, Homo sapiens
# RUN PARAMETERS: read-out: IC50_Mean
Activity calls are given as the source filed them. Rule as the data show it: actives have a measured value and inactives only a lower limit.
Classes used: t for active, f for inactive

[[record]]
molecule = "CCOc1ccc(-n2c(SCC(=O)NCc3ccco3)nc3c4ccccc4nc-3c2O)cc1"
discrete_label = "t"

[[record]]
molecule = "CN(C(=O)Oc1ccc(C(=O)c2ccc(Cl)cc2)cc1)c1ccccc1"
discrete_label = "f"

[[record]]
molecule = "Fc1ccccc1CSc1nnnn1-c1ccc2c(c1)OCO2"
discrete_label = "f"

[[record]]
molecule = "CC[C@@H](C)[C@@H]1CN([C@@H](CN2CCC[C@H]2CN2C(N)=NC[C@H]2CC(C)C)C(C)C)C(=N)N1CCc1ccc(Cl)c(Cl)c1"
discrete_label = "t"

[[record]]
molecule = "O=C(O)C1OC1(c1ccccc1Cl)c1ccccc1Cl (configuration not stated)"
discrete_label = "f"

[[record]]
molecule = "COc1ccc(S(=O)(=O)N2CCCCCC2)cc1C(=O)N(C)Cc1ccc(C(C)(C)C)cc1"
discrete_label = "t"

[[record]]
molecule = "O=C(COc1cc(Cl)ccc1Cl)N1CCNC1=O"
discrete_label = "t"


Origin of the recorded values: ChEMBL document CHEMBL1201862
